# Procedure text: PSAC antagonists in infected red cells, primary screen, cell-based, P. falciparum Indochina, OD700, 18 h (AID 1157)
# Run parameters: P. falciparum Indochina infected erythrocytes, osmotic lysis OD700, 18 h; higher = more signal, called active from +8 up or from −8 down
Listing of recorded z-score by entry.

Compound | z-score
CCOC(=O)[C@H]1C/C=C/C[C@H](C(=O)OCC)C(=O)O[C@H]2[C@@H](OC)O[C@H](CO)[C@@H](OC(=O)Nc3ccc(OC)cc3)[C@@H]2OC1=O | 0.385
COCCOC(=O)N1C(=O)[C@@]2(c3ccccc31)[C@H](C(=O)N1CCN(c3ncccn3)CC1)[C@H]1C(=O)O[C@H](c3ccccc3)[C@H](c3ccccc3)N1[C@@H]2c1ccc(OCCO)cc1 | 1.24
COCCOC(=O)N1C(=O)[C@@]2(c3cc(C#Cc4ccc(OC)cc4)ccc31)[C@H](C(=O)N1CCN(c3ncccn3)CC1)[C@H]1C(=O)O[C@H](c3ccccc3)[C@H](c3ccccc3)N1[C@@H]2c1ccccc1OCCO | 1.07
COCCOC(=O)N1C(=O)[C@@]2(c3cc(C#CC4=CCCCC4)ccc31)[C@H](C(=O)N1CCN(c3ncccn3)CC1)[C@H]1C(=O)O[C@H](c3ccccc3)[C@H](c3ccccc3)N1[C@@H]2c1ccc(O)cc1 | 0.824
COc1ccc(C(O)C2C=CC3C(=O)N(c4ccccc4)C(=O)C3N2Nc2ccccc2)cc1OCc1ccccc1 (stereo not given) | 1.1
